This section presents molecules with their documented Distance walked by flies, Mean values.
- Test system: Drosophila melanogaster adult males (wild type Oregon-R strain)
- test: Horizontal locomotion assay (distance walked)
- Type: in vivo
- assay_setup: 4th day after drug withdrawal, n=30
Structures can show the parent of a compound that is named as a salt. Marks after values point to notes of the source that are not given here.
parameter_measured: Distance walked by flies, Mean

C1CCc2nnnn2CC1 :: 28.03*** cm marks crossed per minute
O=C1C[C@@H]2OCC=C3CN4CC[C@]56c7ccccc7N1[C@H]5[C@H]2[C@H]3C[C@H]46 :: 43.66 cm marks crossed per minute
CC[N+](CC)(CC)CC.[Cl-] [TEA, tetraethylammonium chloride] :: 26.76*** cm marks crossed per minute
CCC1(C)CC(=O)NC1=O (stereo not drawn) [ESD, ethosuximide] :: 40.16*** cm marks crossed per minute
[Cl-].[Li+] [LICA, lithium chloride] :: 33*** cm marks crossed per minute
CC[C@@H]1C(=O)OC[C@@H]1Cc1cncn1C [PILO, pilocarpine-hydrochloride] :: 33.83** cm marks crossed per minute

Value source: patent US20050144654A1
